System: HOP-92 NSCLC
Assay: NCI tumour cell line growth inhibition, 48 h
Where a SMILES comes first, the peptide text is derived from it. The star is where a group is joined. Fmoc = O=C(OCC1c2ccccc2-c2ccccc21)*; Boc = CC(C)(C)OC(=O)*
Reported TGI by item:

{"Compound": "COc1ccc2c(c1)NC(=O)CN2c1nc(C)nc2ccccc12", "Result": "> 100 µM"}
{"Compound": "C/C=C1/C(=O)O[C@]23C=C[C@@H]4C(C(=O)OC)=CO[C@H](O[C@@H]12)[C@@H]43", "Result": "3.74 µM"}
{"Compound": "CC1OC(n2cnc3c(N)nc(Cl)nc32)C(C)(O)C1O (stereo not drawn)", "Result": "> 25 µM"}
{"Compound": "CN/N=C(/CC(=O)c1sc(NNC(C)=O)nc1C)C(=O)Nc1ccc(OC)cc1OC", "Result": "> 100 µM"}
{"Compound": "COc1ccc(OC)c(/C=C/C(=O)c2ccc3cc(OC)ccc3c2)c1", "Result": "> 50 µM"}
{"Compound": "CC(C)(C)OC(=O)NCCCCC(NC(=O)C(Cc1c[nH]c2ccccc12)NC(=O)OCC1c2ccccc2-c2ccccc21)C(=O)O (stereo not drawn) (Fmoc-Trp-Lys(Boc)-OH; configuration not given here)", "Result": "67 µM"}

TGI recorded for this compound, COc1cc(N(CCC#N)CCC#N)ccc1/C(N=Nc1cccc(C)c1)=N\NC(=O)c1ccc(C)cc1 , is > 100 µM

TGI recorded for this compound, NNC(=O)N/N=C1/C(=O)N(c2ccc(Cl)c(Cl)c2)C(=O)C(=O)C1c1nc2ccccc2o1 (stereo not drawn) , is > 100 µM

Where these numbers come from: PubChem BioAssay (NCI)
